# Hemolysis at 100 μg/ml per record follows
Test system: human red blood cells (hRBC)
Experiment: Hemolysis of human red blood cells
Format: cell-based
Settings: red cells of human, 1 h, 100
Where a SMILES comes first, the peptide text is derived from it. [ ]: non-standard residue; d: D form. Cha = N[C@@H](CC1CCCCC1)C(=O)O; Tle = CC(C)(C)[C@H](N)C(=O)O; dDab = NCC[C@@H](N)C(=O)O; Orn = NCCC[C@H](N)C(=O)O; Dab = NCC[C@H](N)C(=O)O; Dap = NC[C@H](N)C(=O)O
endpoint: Hemolysis at 100 μg/ml (%)

• C[C@@H]1NC(=O)[C@H](C(C)(C)C)NC(=O)[C@H](CCN)NC(=O)[C@H](Cc2c[nH]c3ccccc23)NC(=O)[C@H](CCN)NC(=O)[C@@H](CCN)NC(=O)[C@H](CCCN)NC(=O)[C@H](CCN)NC(=O)[C@H](CC2CCCCC2)NC(=O)[C@H](CN)NC(=O)[C@H](Cc2c[nH]c3ccccc23)NC(=O)[C@@H]2CCCN2C(=O)[C@H]2CCCN2C(=O)[C@H](CO)NC1=O [Ex. 10] (cyclo(W[Dap][Cha][Dab][Orn][dDab][Dab]W[Dab][Tle]AS[dP]P)) = 3.5
• C[C@@H]1NC(=O)[C@H](C(C)(C)C)NC(=O)[C@H](CCN)NC(=O)[C@H](Cc2c[nH]c3ccccc23)NC(=O)[C@H](CCN)NC(=O)[C@@H](CCN)NC(=O)[C@H](CCCN)NC(=O)[C@H](CCN)NC(=O)[C@H](Cc2ccc(O)cc2)NC(=O)[C@H](CO)NC(=O)[C@H](Cc2ccc(O)cc2)NC(=O)[C@@H]2CCCN2C(=O)[C@H]2CCCN2C(=O)[C@H](Cc2ccc(O)cc2)NC1=O [compound 153] (cyclo(YSY[Dab][Orn][dDab][Dab]W[Dab][Tle]AY[dP]P)) = 2
